Cited source: ChEMBL document CHEMBL1141377

Test: Stability in alkaline pH after 48 hrs
Type: physicochemical
Conditions: read-out: Stability
MEASUREMENT_LABEL: remaining at 48 h (%)
Write the value in % as a bare number.

Query block: Note remaining at 48 h for the compound shown: CCCCCC[C@H]1C(=O)N[C@](C(=O)SC[C@H](NC(C)=O)C(=O)OC)([C@@H](O)[C@@H]2C=CCCC2)[C@@]1(C)O [CINNABARAMIDE G]
Result block: 45
